The sequences listed here are annotated with their HepSE_Combined Scores.
- Test system: Hepatotoxicity

Previously resolved entries follow.
1. GADOBUTROL = 0
2. GLATIRAMER ACETATE = 5
3. BLEOMYCIN = 0

Tested system Hepatotoxicity; HepSE_Combined Scores recorded for NITROPRUSSIDE was 0

* * *

So I've got HepSE_jaundice readings for Hepatotoxicity, take a look.
// no unit string in output, number only

Previously resolved entries follow.
1) Clc1ccc(CO/N=C(\Cn2ccnc2)c2ccc(Cl)cc2Cl)c(Cl)c1 = 0
2) CCCCC[C@H](O)/C=C/[C@H]1[C@H](O)CC(=O)[C@@H]1CCCCCCC(=O)O = 0
3) O=C1NC(c2ccccc2)(c2ccccc2)C(=O)N1COP(=O)(O)O = 0

Tested system Hepatotoxicity; HepSE_jaundice recorded for N[C@@H](Cc1ccc(N(CCCl)CCCl)cc1)C(=O)O was 1

Tested system Hepatotoxicity; HepSE_jaundice recorded for NC[C@H]1O[C@H](O[C@H]2[C@H](O)[C@@H](O[C@H]3O[C@H](CO)[C@@H](O)[C@H](N)[C@H]3O)[C@H](N)C[C@@H]2N)[C@H](N)C[C@@H]1O was 0

Tested system Hepatotoxicity; HepSE_jaundice recorded for C=CC1=C(C(=O)O)N2C(=O)[C@@H](NC(=O)/C(=N\O)c3csc(N)n3)[C@H]2SC1 was 1

Tested system Hepatotoxicity; HepSE_jaundice recorded for CCNC(=O)[C@@H]1CCCN1C(=O)[C@H](CCCNC(=N)N)NC(=O)[C@H](CC(C)C)NC(=O)[C@@H](COC(C)(C)C)NC(=O)[C@H](Cc1ccc(O)cc1)NC(=O)[C@H](CO)NC(=O)[C@H](Cc1c[nH]c2ccccc12)NC(=O)[C@H](Cc1cnc[nH]1)NC(=O)[C@@H]1CCC(=O)N1 was 0

Tested system Hepatotoxicity; HepSE_jaundice recorded for NC(=O)c1cnccn1 [PYRAZINAMIDE] was 0
